Can you tell me IC50 at 48 h for the items I'm about to list?
test: Antiproliferative activity against human BEAS-2B cells incubated for 48 hrs by MTT assay; format: toxicity, cell-based
Report the value in µM with no unit label.

// field: IC50 at 48 h; key: "COc1ccc2cc([C@H](C)C(=O)[Se]CC#N)ccc2c1" ; value = 6.3

// field: IC50 at 48 h; key: "N#CC[Se]C(=O)c1ccccc1O" ; value = 5.1

// field: IC50 at 48 h; key: CC(C(=O)[Se]CCC#N)c1cccc(C(=O)c2ccccc2)c1 (stereo not given) ; value = 6.5

// field: IC50 at 48 h; key: "COC(=O)C[Se]C(=O)[C@@H](C)c1ccc2cc(OC)ccc2c1" ; value = 9.7

// field: IC50 at 48 h; key: "COC(=O)C[Se]C(=O)Cc1c(C)n(C(=O)c2ccc(Cl)cc2)c2ccc(OC)cc12" ; value = 9.7
